biological target: various mutants of kinase EGFR (BaF3 cell lines stably transfected with kinase) (Homo sapiens, UniProt P00533, L858R); construct: expressed in transfected cells; host or cells: BaF3; test: Growth inhibitory activity of compounds on BaF3 cell lines stably transfected with kinase (MTS, 48 h); type: cell-based; conditions: BaF3 cell line stably transfected with EGFR L858R, read-out: L858R growth inhibitory activity IC50
Sequence (P00533 25-1210 L858R): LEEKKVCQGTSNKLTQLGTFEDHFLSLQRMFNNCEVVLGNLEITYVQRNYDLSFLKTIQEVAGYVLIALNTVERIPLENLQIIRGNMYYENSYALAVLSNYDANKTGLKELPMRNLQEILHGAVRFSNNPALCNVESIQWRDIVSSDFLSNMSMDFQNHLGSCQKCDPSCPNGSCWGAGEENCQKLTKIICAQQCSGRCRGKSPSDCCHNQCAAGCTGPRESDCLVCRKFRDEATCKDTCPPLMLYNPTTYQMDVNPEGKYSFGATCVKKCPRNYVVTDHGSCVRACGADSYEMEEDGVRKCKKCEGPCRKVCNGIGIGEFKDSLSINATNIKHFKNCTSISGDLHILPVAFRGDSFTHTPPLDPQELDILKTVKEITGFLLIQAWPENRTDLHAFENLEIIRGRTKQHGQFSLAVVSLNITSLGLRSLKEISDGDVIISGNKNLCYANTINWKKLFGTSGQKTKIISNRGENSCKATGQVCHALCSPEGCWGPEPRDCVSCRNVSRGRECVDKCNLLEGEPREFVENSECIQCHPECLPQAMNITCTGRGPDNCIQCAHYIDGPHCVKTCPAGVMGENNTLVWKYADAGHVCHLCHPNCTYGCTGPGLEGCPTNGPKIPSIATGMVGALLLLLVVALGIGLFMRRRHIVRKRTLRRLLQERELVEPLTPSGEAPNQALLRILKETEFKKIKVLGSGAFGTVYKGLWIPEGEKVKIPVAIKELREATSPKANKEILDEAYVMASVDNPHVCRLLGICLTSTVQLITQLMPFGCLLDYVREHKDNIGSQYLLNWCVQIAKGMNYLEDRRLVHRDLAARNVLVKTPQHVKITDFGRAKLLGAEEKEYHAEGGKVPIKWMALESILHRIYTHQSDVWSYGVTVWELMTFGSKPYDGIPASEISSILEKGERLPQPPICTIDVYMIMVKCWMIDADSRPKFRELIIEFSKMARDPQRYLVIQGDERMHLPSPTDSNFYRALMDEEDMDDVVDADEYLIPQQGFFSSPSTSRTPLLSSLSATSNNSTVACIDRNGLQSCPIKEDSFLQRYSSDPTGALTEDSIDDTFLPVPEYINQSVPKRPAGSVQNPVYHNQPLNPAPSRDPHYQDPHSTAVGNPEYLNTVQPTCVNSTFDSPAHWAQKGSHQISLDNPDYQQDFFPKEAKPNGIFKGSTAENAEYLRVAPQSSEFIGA
# key: entry, value: IC50

Example compounds with recorded IC50:
> print(dat)
                                 smilesdata  observedresult
1  COc1ccc(N2CCC(O)CC2)cc1Nc1ncc(Cl)c(Nc2ccc3nccnc3c2N(C)S(=O)(=O)C2CC2)n1    50 to 500 nM
2  COc1cc(N2CCC(N3CCN(C)CC3)CC2)c(C)cc1Nc1ncc(Br)c(Nc2ccc3nccnc3c2NS(=O)(=O)C(C)C)n1    50 to 500 nM

Qu. Requested read-out: IC50. Entry: CCc1cc(Nc2nccc(Nc3ccc4nccnc4c3N(C)S(C)(=O)=O)n2)ccc1N1CCC(N2CCN(C)CC2)CC1
Ans. ≤ 50 nM

* * *

Biological target: various mutants of kinase EGFR (BaF3 cell lines stably transfected with kinase) (Homo sapiens, UniProt P00533, L858R/T790M)
Construct: expressed in transfected cells; host or cells: BaF3
Sequence (P00533 25-1210 T790M/L858R): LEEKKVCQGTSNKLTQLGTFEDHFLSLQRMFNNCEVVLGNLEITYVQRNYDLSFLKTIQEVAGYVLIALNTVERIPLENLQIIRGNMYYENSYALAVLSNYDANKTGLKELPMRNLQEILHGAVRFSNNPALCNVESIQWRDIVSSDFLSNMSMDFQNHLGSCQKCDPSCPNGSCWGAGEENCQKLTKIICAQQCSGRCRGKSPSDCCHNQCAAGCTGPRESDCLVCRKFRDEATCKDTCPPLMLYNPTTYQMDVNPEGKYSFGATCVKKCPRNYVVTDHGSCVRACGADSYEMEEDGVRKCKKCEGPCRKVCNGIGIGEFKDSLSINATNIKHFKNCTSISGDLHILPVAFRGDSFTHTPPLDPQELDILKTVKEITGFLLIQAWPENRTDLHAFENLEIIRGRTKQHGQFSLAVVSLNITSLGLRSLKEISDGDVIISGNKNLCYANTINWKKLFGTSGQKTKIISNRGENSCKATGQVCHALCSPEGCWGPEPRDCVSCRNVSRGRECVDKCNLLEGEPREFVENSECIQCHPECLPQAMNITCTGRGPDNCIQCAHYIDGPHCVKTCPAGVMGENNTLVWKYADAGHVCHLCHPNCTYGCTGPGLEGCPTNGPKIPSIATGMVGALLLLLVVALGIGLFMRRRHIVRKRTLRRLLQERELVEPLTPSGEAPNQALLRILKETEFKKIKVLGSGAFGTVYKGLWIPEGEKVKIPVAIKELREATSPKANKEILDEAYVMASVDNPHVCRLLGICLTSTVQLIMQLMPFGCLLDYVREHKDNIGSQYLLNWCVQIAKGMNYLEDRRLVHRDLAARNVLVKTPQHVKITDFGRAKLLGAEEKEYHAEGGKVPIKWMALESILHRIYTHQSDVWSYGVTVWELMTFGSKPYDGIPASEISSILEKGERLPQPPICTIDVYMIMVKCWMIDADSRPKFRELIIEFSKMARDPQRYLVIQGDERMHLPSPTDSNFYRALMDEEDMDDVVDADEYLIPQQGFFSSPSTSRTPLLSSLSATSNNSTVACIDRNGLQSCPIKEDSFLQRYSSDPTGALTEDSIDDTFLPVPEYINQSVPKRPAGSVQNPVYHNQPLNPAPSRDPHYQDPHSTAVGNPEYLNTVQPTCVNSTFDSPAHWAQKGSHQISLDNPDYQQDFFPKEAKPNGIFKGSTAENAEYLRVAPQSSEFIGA
Test: Growth inhibitory activity of compounds on BaF3 cell lines stably transfected with kinase (MTS, 48 h)
Format: cell-based
Conditions: BaF3 cells stably transfected with EGFR L858R/T790M, read-out: IC50, growth inhibition, L858R/T790M
Experimental: The activity of compounds against various mutants of kinase EGFR was evaluated by their effect of inhibiting growth of BaF3 cell lines stably transfected with kinase. The specific test method was given as follows: […] 3) Compound test: cells were incubated into a 96-well culture plate, the volume of cytosol was 90 µL, and then 10 µL of the compound at each gradient concentration was added. […] OD values at 490 nm were measured by a microplate reader (VARIOSKAN FLASH, Thermo). […]
pIC50: −log10 of the molar value.
recordedEndpoint: pIC50

Worked cases, answers included:
> print(dat)
                                   molecule  recordedendpoint  observedresult
1  COc1cc(N2CCC(N3CCN(C)CC3)CC2)c(C)cc1Nc1ncc(C(F)(F)F)c(Nc2ccc3nccnc3c2N(C)S(C)(=O)=O)n1 [Compound I-34]             pIC50          ≥ 7.30
2  CCc1cc(Nc2ncc(F)c(Nc3ccc4nccnc4c3N(C)S(C)(=O)=O)n2)c(OC)cc1N1CCC(N(C)C)C1 (stereo not drawn) [Compound I-188]             pIC50    6.30 to 7.30
3  CN1CCN(C2CCN(c3ccc(Nc4ncc(F)c(Nc5ccc6nccnc6c5N(C)S(C)(=O)=O)n4)c(OC(F)(F)F)c3)CC2)CC1 [Compound I-178]             pIC50    5.60 to 6.30
4  CCc1cc(Nc2ncc(Br)c(Nc3ccc4nccnc4c3N(C)S(C)(=O)=O)n2)c(OC)cc1N1CCC(N(C)C)C1 (stereo not drawn) [Compound I-17]             pIC50          ≥ 7.30
5  COc1cc(N2CCC(N3CCN(C)CC3)CC2)c(C2CC2)cc1Nc1ncc(Cl)c(Nc2ccc3nccnc3c2N(C)S(C)(=O)=O)n1 [Compound I-287]             pIC50          ≥ 7.30

Moving on to the next molecule.
Qu. What does the data say about its pIC50? Entry: COc1nc(N2CCC(N3CCN(C)CC3)CC2)ccc1Nc1ncc(Cl)c(Nc2ccc3nccnc3c2N(C2CC2)S(C)(=O)=O)n1 [Compound I-239]
Ans. 6.30 to 7.30
